Origin of measurements: patent US10336702B2

SUBJECT_OF_TEST: p-Akt1 in LNCaP cells (Homo sapiens)
Construct: SureFire assays to detect cellular p-Akt1, p-Akt2 and p-Akt3 levels in WM115 cells (Akt2/3) and LNCaP cells (Akt1); endogenous in cells; host or cells: LNCaP (ECACC 89110211)
Sequence (P31749 whole entry): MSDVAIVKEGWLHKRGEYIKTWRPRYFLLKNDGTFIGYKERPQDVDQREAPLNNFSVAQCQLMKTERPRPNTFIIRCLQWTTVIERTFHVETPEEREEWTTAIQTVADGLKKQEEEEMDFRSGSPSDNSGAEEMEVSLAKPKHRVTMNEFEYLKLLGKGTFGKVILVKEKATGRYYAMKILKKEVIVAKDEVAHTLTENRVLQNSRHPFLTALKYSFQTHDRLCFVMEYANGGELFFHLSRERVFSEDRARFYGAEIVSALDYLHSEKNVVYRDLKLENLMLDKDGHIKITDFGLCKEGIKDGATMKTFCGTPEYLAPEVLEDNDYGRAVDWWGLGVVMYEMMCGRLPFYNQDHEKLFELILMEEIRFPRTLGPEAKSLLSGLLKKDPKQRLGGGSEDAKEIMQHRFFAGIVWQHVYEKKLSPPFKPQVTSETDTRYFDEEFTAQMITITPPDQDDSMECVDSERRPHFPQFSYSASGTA
EXPERIMENTAL_DETAILS: Phospho-Akt cellular SureFire assay, p-Akt1 in LNCaP cells
Type: cell-based
SETUP_CONDITIONS: read-out: Biological Assay 2 IC50 (nM) Akt1 LNCaP
Catalogue of IC50 readings, one per entry.

C[C@]1(O)C[C@@](N)(c2ccc(-c3ncc(NC(=O)C[C@H]4CC[C@H](N5CCOCC5)CC4)cc3-c3ccccc3)cc2)C1 [Example A15]: 760 nM
CC(C)(N)c1ccc(-c2cnc(NC(=O)C[C@H]3CC[C@H](N4CCOC4=O)CC3)cc2-c2ccccc2)cc1 [Example 64]: > 30000 nM

*Q* // returns reported IC50 for input CN(C(=O)C1CC1)[C@H]1CC[C@H](CC(=O)Nc2cnc(-c3ccc(C(C)(C)N)cc3)c(-c3ccsc3)c2)CC1 [Example 27]
*A* > 30000 nM

###

# IC50 per record follows
SUBJECT_OF_TEST: Akt2 (Homo sapiens, UniProt P31751)
Construct: unspecified tag, removed (detagged) (cleaved yes); purchased SignalChem and Proteros (Akt2); Merck Millipore (PDK1) 14-452 (PDK1); none given for Akt2
Sequence (P31751 whole entry): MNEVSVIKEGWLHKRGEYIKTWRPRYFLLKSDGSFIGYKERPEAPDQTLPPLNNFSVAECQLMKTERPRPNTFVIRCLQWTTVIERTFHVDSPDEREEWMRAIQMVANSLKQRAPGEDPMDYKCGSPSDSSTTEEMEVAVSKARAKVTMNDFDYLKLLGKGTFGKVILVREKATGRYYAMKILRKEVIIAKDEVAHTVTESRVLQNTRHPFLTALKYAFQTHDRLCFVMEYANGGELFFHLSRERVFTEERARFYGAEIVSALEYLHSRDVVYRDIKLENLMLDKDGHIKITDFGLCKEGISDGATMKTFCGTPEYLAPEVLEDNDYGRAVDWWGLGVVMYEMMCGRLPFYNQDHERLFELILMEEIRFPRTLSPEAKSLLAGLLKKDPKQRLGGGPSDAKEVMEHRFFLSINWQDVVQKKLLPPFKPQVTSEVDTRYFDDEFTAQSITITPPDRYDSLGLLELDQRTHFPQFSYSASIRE
EXPERIMENTAL_DETAILS: Akt activation assay (PDK1-mediated activation, LANCE Ultra crosstide TR-FRET), Akt2
Type: biochemical
SETUP_CONDITIONS: read-out: Biological Assay 1 IC50 (nM) Akt2
Enter the number, and then the unit.

// below: answered compounds
CCC(=O)N(C)[C@H]1CC[C@H](CC(=O)Nc2cnc(-c3ccc(C4(N)CC4)c(F)c3)c(-c3ccccc3)c2)CC1 [Example 90]: 2500 nM
NC1(c2ccc(-c3ncc(NC(=O)[C@@H](F)C4CCN(S(=O)(=O)C5CC5)CC4)cc3-c3ccccc3)cc2)CCC1 [Example 50]: 670 nM
CCC(=O)N(C)[C@H]1CC[C@H](CC(=O)Nc2cc(-c3ccsc3)c(-c3ccc(C4(N)CC4)c(F)c3)nn2)CC1 [Example A101]: 11000 nM
CC(=O)N(C)[C@H]1CC[C@H](CC(=O)Nc2cc(-c3ccccc3F)c(-c3ccc(C4(N)CCC4)cc3)cn2)CC1 [Example A62]: 1100 nM
CC(=O)N(C)[C@H]1CC[C@H](CC(=O)Nc2cnc(-c3ccc(C4(N)CC(F)(F)C4)cc3)c(-c3ccccc3)c2)CC1 [Example 5]: 800 nM

*Q* Which IC50 is reported for this compound? COC(=O)N(C)[C@H]1CC[C@H](CC(=O)Nc2cc(-c3ccsc3)c(-c3ccc(C4(N)CCC4)cc3)nn2)CC1 [Example 81]
*A* 1300 nM

###

SUBJECT_OF_TEST: p-Akt3 in WM115 cells (Homo sapiens, UniProt Q9Y243)
Construct: SureFire assays to detect cellular p-Akt1, p-Akt2 and p-Akt3 levels in WM115 cells (Akt2/3) and LNCaP cells (Akt1); endogenous in cells; host or cells: WM115 (ECACC 91061232), insulin-stimulated
Sequence (Q9Y243 whole entry): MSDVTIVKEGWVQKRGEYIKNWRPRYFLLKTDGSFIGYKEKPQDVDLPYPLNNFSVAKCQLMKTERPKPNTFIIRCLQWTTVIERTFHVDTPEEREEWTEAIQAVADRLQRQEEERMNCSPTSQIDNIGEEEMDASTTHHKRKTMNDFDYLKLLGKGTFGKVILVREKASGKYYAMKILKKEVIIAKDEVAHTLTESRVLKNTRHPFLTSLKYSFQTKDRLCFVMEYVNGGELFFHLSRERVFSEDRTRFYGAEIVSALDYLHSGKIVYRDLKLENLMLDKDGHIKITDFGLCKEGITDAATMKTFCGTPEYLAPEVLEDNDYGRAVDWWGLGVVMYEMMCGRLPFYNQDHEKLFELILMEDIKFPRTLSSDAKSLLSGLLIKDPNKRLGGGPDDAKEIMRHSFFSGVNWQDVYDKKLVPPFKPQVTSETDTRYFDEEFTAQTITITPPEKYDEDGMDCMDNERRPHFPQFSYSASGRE
EXPERIMENTAL_DETAILS: Phospho-Akt cellular SureFire assay, p-Akt3 in WM115 cells
Type: cell-based
SETUP_CONDITIONS: insulin stimulated, read-out: Biological Assay 2 IC50 (nM) Akt3 WM115
Description: Biological Assay 2: Phospho-Akt (p-Akt) Cellular SureFire Assays The following describes SureFire assays to detect cellular p-Akt1, p-Akt2 and p-Akt3 levels in WM115 cells (Akt2/3) and LNCaP cells (Akt1). […] 2 μL dilution buffer, supplemented with a 1/20 dilution of donor beads was added to each well and incubated for a further 2 h. Plates were read with the EnVision® Multilabel Plate Reader and using the AlphaScreen settings. Compound IC50 was determined using a 4-parameter equation.
ENDPOINT_LABEL: IC50

Here is how some molecules turned out for IC50.
CCC(=O)N(C)[C@H]1CC[C@H](CC(=O)Nc2cc(-c3ccccc3)c(-c3ccc(C(C)(C)N)cc3)nn2)CC1: 150 nM
COC1(OC)CCC(CC(=O)Nc2cnc(-c3ccc(C4(N)COC4)cc3)c(-c3ccccc3)c2)CC1: 230 nM
COC(=O)N(C)[C@H]1CC[C@H](CC(=O)Nc2cc(-c3ccccc3)c(-c3ccc(C(C)(C)N)cc3)nn2)CC1: 330 nM
CC(=O)N(C)[C@H]1CC[C@H](CC(=O)Nc2cnc(-c3ccc(C(C)(C)N)c(F)c3)c(-c3ccccc3)c2)CC1: 440 nM
CCC(=O)N(C)[C@H]1CC[C@H](CC(=O)Nc2cc(-c3ccccc3)c(-c3ccc([C@]4(N)C[C@H](F)C4)cc3)nn2)CC1: 38 nM

Now consider the entry below.
*Q* What IC50 value was documented for this molecule, `CC(C)(N)c1ccc(-c2nnc(NC(=O)C[C@H]3CC[C@H](N4CCOC4=O)CC3)nc2-c2ccccc2)cc1` ?
*A* 480 nM

###

SUBJECT_OF_TEST: Akt2 (Homo sapiens, UniProt P31751)
Construct: unspecified tag, removed (detagged) (cleaved yes); purchased SignalChem and Proteros (Akt2); Merck Millipore (PDK1) 14-452 (PDK1); none given for Akt2
EXPERIMENTAL_DETAILS: Akt activation assay (PDK1-mediated activation, LANCE Ultra crosstide TR-FRET), Akt2
Format: biochemical
SETUP_CONDITIONS: read-out: Biological Assay 1 IC50 (nM) Akt2
# if measured IC50 < 1000 nM: 1  # else: -1

CC(=O)N(C)[C@H]1CC[C@H](CC(=O)Nc2cc(-c3ccsc3)c(-c3ccc(C(C)(C)N)cc3)nn2)CC1: -1
CCC(=O)N(C)[C@H]1CC[C@H](CC(=O)Nc2cc(-c3ccccc3)c(-c3ccc([C@]4(N)C[C@](C)(O)C4)cc3)nn2)CC1: 1
COC(=O)N(C)[C@H]1CC[C@H](CC(=O)Nc2cc(-c3ccccc3)c(-c3ccc([C@]4(N)C[C@](C)(O)C4)cc3)nn2)CC1: 1
CC(=O)N[C@H]1CC[C@H](CC(=O)Nc2cnc(-c3ccc(C4(N)COC4)cc3)c(-c3ccccc3)c2)CC1: -1
CC(=O)N(C)[C@H]1CC[C@H](CC(=O)Nc2cnc(-c3ccc([C@]4(N)C[C@H](F)C4)cc3)c(-c3ccccc3)c2)CC1: 1

*Q* Please state whether IC50 is below 1000 nM for `NC1(c2ccc(-c3ncc(NC(=O)C[C@H]4CC[C@H](NS(=O)(=O)C5CC5)CC4)cc3-c3ccccc3)cc2)COC1`
*A* 1

*Q* Just wondering, is IC50 of `CCOC(=O)N(C)[C@H]1CC[C@H](CC(=O)Nc2cnc(-c3ccc(C(C)(C)N)cc3)c(-c3ccccc3)c2)CC1` below 1000 nM?
*A* -1

###

SUBJECT_OF_TEST: Akt3 (Homo sapiens, UniProt Q9Y243)
Construct: unspecified tag, removed (detagged) (cleaved yes); purchased SignalChem and Proteros (Akt3); Merck Millipore (PDK1) 14-452 (PDK1); none given for Akt3
EXPERIMENTAL_DETAILS: Akt activation assay (PDK1-mediated activation, LANCE Ultra crosstide TR-FRET), Akt3
Assay type: biochemical
SETUP_CONDITIONS: read-out: Biological Assay 1 IC50 (nM) Akt3
Mark label 1 only when IC50 stays strictly below 80 nM. Values equal to the cut-off are label 0.

Record excerpt, results attached:
COC(=O)N(C)[C@H]1CC[C@H](CC(=O)Nc2cc(-c3ccccc3)c(-c3ccc([C@]4(N)C[C@H](F)C4)cc3)nn2)CC1: label 1
CN(C(=O)C1CC1)[C@H]1CC[C@H](CC(=O)Nc2cnc(-c3ccc(C(C)(C)N)c(F)c3)c(-c3ccccc3)c2)CC1: label 0
CC(=O)N(C(C)C)[C@H]1CC[C@H](CC(=O)Nc2cnc(-c3ccc([C@]4(N)C[C@](C)(O)C4)cc3)c(-c3ccccc3)c2)CC1: label 1
CC(=O)N(C)[C@H]1CC[C@H](CC(=O)Nc2cc(-c3ccsc3)c(-c3ccc(C4(N)CCC4)cc3)nn2)CC1: label 1

*Q* Determine whether this molecule shows IC50 lower than 80 nM (ties excluded): `CN(C(=O)C1CCC1)[C@H]1CC[C@H](CC(=O)Nc2cnc(-c3ccc(C(C)(C)N)cc3)c(-c3ccccc3)c2)CC1`
*A* label 1

*Q* A record lists `COC(=O)N(C(C)C)[C@H]1CC[C@H](CC(=O)Nc2cc(-c3ccccc3)c(-c3ccc([C@]4(N)C[C@](C)(O)C4)cc3)cn2)CC1` . Is its IC50 below 80 nM?
*A* label 1

*Q* Quick check: IC50 of `CCOC(=O)N(C)[C@H]1CC[C@H](CC(=O)Nc2cc(-c3ccccc3)c(-c3ccc([C@]4(N)C[C@](C)(O)C4)cc3)cn2)CC1` under 80 nM?
*A* label 1

*Q* Please determine if `CN(C(=O)C1CC1)[C@H]1CC[C@H](CC(=O)Nc2cc(-c3ccccc3)c(-c3ccc(C(C)(C)N)cc3)nn2)CC1` is below 80 nM in terms of IC50.
*A* label 1

*Q* Dear reviewer, please state whether `CN([C@H]1CC[C@H](CC(=O)Nc2cnc(-c3ccc(C(C)(C)N)cc3)c(-c3ccsc3)c2)CC1)S(C)(=O)=O` has IC50 strictly beneath 80 nM.
*A* label 0

*Q* Hello, I'm reviewing records and need to know if IC50 of `CCC(=O)N(C)[C@H]1CC[C@H](CC(=O)Nc2cnc(-c3ccc(C(C)(C)N)cc3)c(-c3ccccc3)c2)CC1` is below 80 nM. Could you check?
*A* label 1

*Q* Report whether reported IC50 is lower than 80 nM (strictly) for `CCCC(=O)N(C)[C@H]1CC[C@H](CC(=O)Nc2cnc(-c3ccc(C4(N)CC4)cc3)c(-c3ccccc3)c2)CC1`
*A* label 0

*Q* Hello, I'm reviewing records and need to know if IC50 of `CCC(=O)N(C)[C@H]1CC[C@H](CC(=O)Nc2cc(-c3ccccc3)c(-c3ccc(C4(N)CC4)c(F)c3)nn2)CC1` is below 80 nM. Could you check?
*A* label 0
